Each recorded value in this set is attributed to paper PMC12009420.

Assay: MTT cytotoxicity assay
Assay type: cell-based
Conditions: human, HepG2 cells, HepG2, MTT, read-out: CC50 (in viability curve)
This listing pairs molecules with measured CC50 at 24 h.

{"Molecule": "O=C(NC(c1ccccc1O)P(=O)(O)O)c1cc2c(s1)CCCC2 (stereo not drawn)", "CC50 at 24 h": "> 1000 µM"}
{"Molecule": "O=C(NC(c1ccccc1O)P(=O)(O)O)c1ccccc1 (stereo not drawn)", "CC50 at 24 h": "> 1000 µM"}
{"Molecule": "O=C(Cc1ccccc1)NC(c1ccccc1O)P(=O)(O)O (stereo not drawn)", "CC50 at 24 h": "> 1000 µM"}

###

Target: GIM-1 (Pseudomonas aeruginosa, UniProt Q704V1)
Sequence (Q704V1 entry or part of it): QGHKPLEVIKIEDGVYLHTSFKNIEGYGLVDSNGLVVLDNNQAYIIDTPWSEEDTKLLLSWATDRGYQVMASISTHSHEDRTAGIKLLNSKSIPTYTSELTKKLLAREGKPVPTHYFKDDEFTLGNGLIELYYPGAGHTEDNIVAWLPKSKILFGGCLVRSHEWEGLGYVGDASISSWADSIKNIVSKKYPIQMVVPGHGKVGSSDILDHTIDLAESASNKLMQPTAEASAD
Assay: Enzymatic metallo-β-lactamase assay on purified GIM-1
Conditions: approximated from Dixon plots (1/v vs [I]) at one constant substrate concentration; ± SE; read-out: Estimated inhibition constant Ki GIM-1

{"Compound": "O=C(NC(c1ccccc1O)P(=O)(O)O)c1cc2ccccc2s1 (stereo not drawn)", "Scale Unit": "µM", "Ki": 102}
{"Compound": "O=C(NC(c1ccccc1O)P(=O)(O)O)c1ccccc1 (stereo not drawn)", "Scale Unit": "µM", "Ki": 118}
{"Compound": "O=C(NC(c1ccccc1O)P(=O)(O)O)c1scc2c1CCCC2 (stereo not drawn)", "Scale Unit": "µM", "Ki": 113}

###

IC50 reference
Biological target: GIM-1 (Pseudomonas aeruginosa, UniProt Q704V1)
Assay: Enzymatic metallo-β-lactamase assay on purified GIM-1
Conditions: purified enzyme 1 nM, nitrocefin 2 μM, pH 7.2, 25 °C

{"Molecule": "O=C(Cc1ccccc1)NC(c1ccccc1O)P(=O)(O)O (stereo not drawn)", "Scale Unit": "µM", "IC50": 121}
{"Molecule": "O=C(NC(c1ccccc1O)P(=O)(O)O)c1cc2ccccc2s1 (stereo not drawn)", "Scale Unit": "µM", "IC50": 101}
{"Molecule": "O=C(Cc1ccsc1)NC(c1ccccc1O)P(=O)(O)O (stereo not drawn)", "Scale Unit": "µM", "IC50": 103}
